Target: T1, FZD3 CRD (Homo sapiens, UniProt Q9NPG1)
T1 construct: CRD of FZD1, FZD2, FZD3, FZD4, FZD5, FZD6, FZD7, FZD8, FZD9 or FZD10; GPI anchor signal (C); expressed in transfected cells; host or cells: CHO cells, lentiviral pLenti-puro
T1 sequence (Q9NPG1 23-136 limits assumed): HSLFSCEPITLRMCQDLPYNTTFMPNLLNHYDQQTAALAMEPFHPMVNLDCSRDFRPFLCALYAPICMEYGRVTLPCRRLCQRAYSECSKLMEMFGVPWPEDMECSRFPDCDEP
Experiment: Immunofluorescence of anti-FZD5 Fab binding to CHO cells overexpressing Frizzled CRD
Set-up: key: −: no binding; +: very weak binder; ++: weak binder; +++: good binder; ++++: very good binder
quantity: Immunofluorescence binding, Frizzled CRD overexpressed on CHO cells: FZD3

molecule: Fab-2918: anti-FZD5 Fab with antibody variable region Fv-2918; CDR SEQ ID NOs: 35, 36, 57, 96, 133, 169 (antibody, V domains shown) VH: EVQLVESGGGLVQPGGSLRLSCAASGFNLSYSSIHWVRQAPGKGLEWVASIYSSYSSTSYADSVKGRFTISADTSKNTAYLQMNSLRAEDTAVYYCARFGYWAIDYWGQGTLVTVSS VL: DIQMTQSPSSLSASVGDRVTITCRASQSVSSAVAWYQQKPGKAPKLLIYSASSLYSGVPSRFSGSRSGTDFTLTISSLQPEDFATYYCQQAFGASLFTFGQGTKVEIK
result-value: −
